Hey, just so you know, these numbers are from patent US20250170111A1.

- System: MDA-MB-231
- testDescription: Alamar Blue cell viability assay, MDA-MB-231
- Format: cell-based
- assaySetup: Homo sapiens, 48 hrs. post treatment, Mean ± SEM, read-out: IC50 against MDA-MB-231
- Source text: Besides, the effect of these analogs was compared to docetaxel, a first-line chemotherapy, as a positive control.
pIC50: −log10 of the molar value.
Below, each of the compounds is paired with its reported pIC50 value.

compound	measuredTarget	pIC50
CC(=O)O[C@@]12CO[C@@H]1C[C@H](O)[C@@]1(C)C(=O)[C@H](O)C3=C(C)[C@@H](OC(=O)[C@H](O)[C@@H](NC(=O)OC(C)(C)C)c4ccccc4)C[C@@](O)([C@@H](OC(=O)c4ccccc4)[C@H]21)C3(C)C [docetaxel, reference compound]	MDA-MB-231	5.19
O=C(/C=C/c1cccc(-c2ccsc2)n1)c1ccccc1C(F)(F)F	MDA-MB-231	5.68
COc1ccccc1C(=O)/C=C/c1cccc(-c2ccsc2)n1	MDA-MB-231	5.49

---

- Tested on: DU145
- testDescription: Alamar Blue cell viability assay, DU145
- assaySetup: Homo sapiens, DU-145, 48 h, read-out: DU145 IC50
valueKind: IC50 (µM)

> print(dat)
                             compoundstring  valuekind  readoutvalue
1  COc1ccc2c(c1)C(=O)/C(=C/c1cccc(-c3ccsc3)n1)CC2       IC50          6.47
2  COc1cc2c(cc1OC)C(=O)/C(=C/c1ccc(-c3ccsc3)nc1)CC2       IC50          5.63
3  COc1cccc(C(=O)/C=C/c2cccc(-c3ccsc3)n2)c1       IC50           5.2
